# System: SK-MEL-2 melanoma
# assay_procedure: NCI-60 one-dose screen, 48 h (100 = growth as untreated, 0 = no growth, -100 = all killed)
# details: 10 µM unless noted
This is part of a sample that, as a whole, favours compounds with a hit. Of some 83,000 tested, about 20% had one in any assay.
Give growth for every item shown.
Give bare numbers, in %.

# per-item lookup of growth; items listed below
1. Fc1ccc2nc(-c3cnn4cccnc34)sc2c1
2. Cc1nc(/N=C(N)/N=C(\N)c2cccc(Br)c2)sc1C

Result:
[119, 64]

Batch lookup, growth per entry.
1. NS(=O)(=O)c1cccc(Nc2nc(SCC(=O)c3ccc(Cl)cc3)nc3c2CCC3)c1
2. CN(C)CCNc1ccc2ncc(C#Cc3cncc(C(=O)Nc4ccc(CN5CCN(C)CC5)c(C(F)(F)F)c4)c3)n2n1
3. CC1CC(=O)C2=C(C1)Nc1ccc(Br)cc1CC2c1c[nH]c2ccc(Br)cc12 (stereo not given)

Result:
[98, 0.656, 37.3]

====

# System: COLO 205 colon
# assay_procedure: NCI-60 one-dose screen, 48 h (100 = growth as untreated, 0 = no growth, -100 = all killed)
# details: 10 µM unless noted
The panel holds about 83,000 compounds, 20% with a hit somewhere; the sample as a whole holds those more often.
Kindly state growth for each of the entries shown.
One number for each entry, in %.

Some solved cases for reference:
O=S(=O)(NCCCNc1nccc(-c2[nH]c(-c3ccccc3)nc2-c2ccc(F)c(O)c2)n1)c1cccc(F)c1: 96.3
CN1CCN(c2ccc(Nc3nc(NCCCNS(=O)(=O)c4cccc(F)c4)c4sccc4n3)cc2)CC1: 27.1
N#C/C(=C\c1ccc(-c2ccc(Cl)cc2)o1)C(=O)Nc1ncc(Cc2ccc(Br)cc2)s1: 41.1
CC1=C(C)C(=O)C(Nc2cccc(C(F)(F)F)c2)=C(Br)C1=O: 115
O=C(/C=C/c1cccc(Br)c1)c1cccc(OCCCCOc2cccc(C(=O)/C=C/c3cccc(Br)c3)c2)c1: 115

Give one value of growth per listed compound.
1. CC(C)=CCC[C@](C)(O)[C@H]1CC[C@]2(C)[C@@H]1CC[C@@H]1[C@@]3(C)CC[C@H](N)C(C)(C)[C@@H]3CC[C@]12C
2. Nc1nc(=O)n([C@H]2C[C@H](O)[C@@H](CO)O2)cc1C=O
3. COc1cc(/C=C2/C(=O)Nc3ccc(Cl)cc32)ccc1OCc1ccc(Cl)cc1
4. CCN(CC)c1ccc(/C=N/NC(=O)c2ccc(NS(C)(=O)=O)cc2)cc1
5. COC(=O)c1cccc(NC2=C(Cl)C(=O)C(C)=C(C)C2=O)c1

Result:
[-31.4, 14.5, 93.4, 13.9, 114]

====

For each entry below, report its growth value.
# Test system: HCT-15 colon
# assay_procedure: NCI-60 one-dose screen, 48 h (100 = growth as untreated, 0 = no growth, -100 = all killed)
# details: 10 µM unless noted
The panel holds about 83,000 compounds, 20% with a hit somewhere; the sample as a whole holds those more often.
Numbers only, in %.

Cn1cc(-c2nn3cc(-c4ccncc4)nc3s2)c2cc(F)ccc21: 38.7
CC[C@]12C=CCN3CC[C@@]4(c5ccc(OC)cc5N(C)[C@H]4[C@@](O)(C(=O)OC)[C@@H]1OC(=O)CCN1CCc4ccccc4C1)[C@@H]32: 84.8
Cc1ccc(NC(=O)Nc2nc3ccc([N+](=O)[O-])cc3s2)cc1: 7.79
C#CCOc1ccc(-c2csc(NC(=O)C=C)n2)cc1NS(=O)(=O)c1cccc2c(N(C)C)cccc12: -9.26
CC(C)(C)Nc1nc2c(OCCc3ccccc3)cccn2c1-c1cccc(Oc2ccccc2)c1: 6.6
CCOC(=O)c1c(NC(=O)c2cccc(C(F)(F)F)c2)sc2c1CCC(=O)C2: 18.9
O=C(CCCCCCN1CC(=O)N2[C@@H](C3CC3)c3[nH]c4ccccc4c3C[C@H]2C1=O)NO: 92.9
CC(=O)OCCCCN1C=C/C(=C\C(=O)n2ccc3ccccc32)c2ccccc21: 101
COc1cc(C(=O)c2cc(C(C)=O)c3c(C)cccn23)cc(OC)c1OC: 88.6

Next:
Ask: Query: growth; subject: `O=C(Nc1cc(C(F)(F)F)cc(C(F)(F)F)c1)Nc1ccc2oc(=O)ccc2c1`
Result: 10.5

====

# Test system: RXF 393 renal
# assay_procedure: NCI-60 one-dose screen, 48 h (100 = growth as untreated, 0 = no growth, -100 = all killed)
# details: 10 µM unless noted
This is part of a sample that, as a whole, favours compounds with a hit. Of some 83,000 tested, about 20% had one in any assay.
Consider the following compounds; for each one, report its growth.
One number for each entry, in %.

Worked examples, 3 compounds total:
CC1=C(C)C(=O)C(Nc2cccc(C(=O)OC(C)(C)C)c2)=C(Cl)C1=O: 103
CCCCCN1C(=O)/C(=c2\sc3n(c2=O)C2C(NN=3)N(CC)C(=O)N2CC)c2cccc(C)c21 (stereo not given): 15.1
COC(=O)c1cccc(NC2=C(Cl)C(=O)c3nc(C)ccc3C2=O)c1: 59.7

Take each entry in turn and give its growth.
1. COC(=O)CCCNCCCn1ccc2cc(NCc3cccc(-c4ccccc4)c3C)ccc21
2. Cc1ccc(-c2nc(SCC(=O)c3ccccc3)nc(Nc3ccc(S(N)(=O)=O)cc3)c2C#N)cc1
3. CN1CCN(Cc2ccc(NC(=O)c3cncc(C#Cc4cnc5ccc(N6CCOCC6)nn45)c3)cc2C(F)(F)F)CC1
4. CC(C)Sc1nc(-c2ccccc2)c(C#N)c(N2CCOCC2)n1
5. Cn1cc(-c2nn3cc(-c4ccncc4)nc3s2)c2cc(F)ccc21
6. CCOC(=O)c1cccc(NC2=C(Cl)C(=O)C(C)=C(C)C2=O)c1
7. CCS(=O)(=O)Nc1ccc(C(=O)CC2(O)C(=O)Nc3ccccc32)cc1 (stereo not given)

Result:
1. 71.9
2. 51.7
3. -77.9
4. 45.7
5. 88
6. 102
7. 115

====

# System: HCC-2998 colon
# assay_procedure: NCI-60 one-dose screen, 48 h
# details: 10 µM unless noted
This is part of a sample that, as a whole, favours compounds with a hit. Of some 83,000 tested, about 20% had one in any assay. Activity calls are given as the source filed them. How the source made its calls: active means growth percent below 10; inactive means the rest.
I would appreciate it if you answered using one of these outcomes: TRUE for active, FALSE for inactive

Ask: Give the logged outcome of this assay for the following compound: `CN(C)CC(=O)Nc1nc(-c2cccc(NS(=O)(=O)c3cccc4c(N(C)C)cccc34)c2)cs1`
Result: FALSE

====

# System: UACC-62 melanoma
# assay_procedure: NCI-60 one-dose screen, 48 h (100 = growth as untreated, 0 = no growth, -100 = all killed)
# details: 10 µM unless noted
The panel holds about 83,000 compounds, 20% with a hit somewhere; the sample as a whole holds those more often.
Rule: MET for growth not less than 90%, NOT MET for anything less.

COc1ccc(-c2nc(C#N)c(N3CCC(S(=O)(=O)N4CCOCC4)CC3)o2)cc1: MET

Ask: For this molecule, is measured growth 90% or higher? `O=C(CCl)Nc1ccc(NC(=O)c2cc(Cl)ccc2O)c(Cl)c1`
Result: NOT MET

Ask: Is growth at least 90%? Consider `CN1CCC[C@]2(C)[C@H]3CC[C@@H]4[C@@H]5[C@H]6OC[C@@]5(CCC6(C)C)CC[C@@]4(C)[C@]3(C)CC[C@H]2C1(C)C`
Result: MET

Ask: Is it the case that `Cc1ccc2c(n1)C(=O)C(Cl)=C(Nc1ccc(C(F)(F)F)cc1)C2=O` has growth reaching or exceeding 90%?
Result: MET

Ask: Textbook exercise: given the entry `Cc1ccc(C(=O)CSc2nc3ccccc3c(=O)n2C)cc1` , state whether its growth is greater than or equal to 90%.
Result: NOT MET

Ask: Kindly determine if growth recorded for COc1ccc(C2CC(c3cccc(OCCCCOc4cccc(C5=NN(C(C)=O)C(c6ccc(OC)cc6)C5)c4)c3)=NN2C(C)=O)cc1 (centres undefined) is above or exactly 90%.
Result: NOT MET

Ask: I'd appreciate it if you could say whether COc1ccc(C2c3[nH]c4ccc(Cl)cc4c3CCN2c2oc(CO)nc2C#N)cc1 (centres undefined) has growth at least equal to 90%.
Result: NOT MET

Ask: Form field: growth at least 90%? Entry: `COC(=O)CCSC1=C(C)C(=O)c2ccccc2C1=O`
Result: NOT MET

Ask: Item `C#CCOc1ccccc1/C=N/Nc1nc(-c2ccc(Cl)cc2)cs1` with growth of 90% or above?
Result: NOT MET

====

# Test system: SW-620 colon
# assay_procedure: NCI-60 one-dose screen, 48 h (100 = growth as untreated, 0 = no growth, -100 = all killed)
# details: 10 µM unless noted
The panel holds about 83,000 compounds, 20% with a hit somewhere; the sample as a whole holds those more often. Activity calls are given as the source filed them. The calls were made as follows: active = growth percent below 10; inactive = the rest.
measure: growth

// solved cases for growth follow
N#Cc1c(-c2ccc(F)cc2)cc(-c2c[nH]c3ccccc23)nc1-c1c[nH]c2ccccc12: 107% (inactive)
COc1ccc2c(c1)c(/C=N/Nc1ccnc3cc(Cl)ccc13)cn2C: -76.6% (active)
CC(=O)N1N=C(c2cc3ccccc3oc2=O)CC1c1cn(-c2ccccc2)nc1-c1ccc(C)cc1 (centres undefined): 98.8% (inactive)
Cc1ccc(C(=O)Nc2ccc(CNCCN3CCOCC3)c(C(F)(F)F)c2)cc1C#Cc1cnc2cccnn12: 14.1% (inactive)
CC(Nc1ncnc2ccc(-c3cnc(N)nc3)cc12)c1ccccc1 (centres undefined): 67.4% (inactive)
CCc1nnc(NC(=O)c2cc(-c3ccc(Cl)cc3Cl)oc2C)s1: 93.3% (inactive)
CCS(=O)(=O)Nc1ccc(C(=O)CC2(O)C(=O)Nc3ccccc32)cc1 (centres undefined): 103% (inactive)
Cc1ccc(C(=O)CSc2nnc(-c3ccc(-c4ccc(Cl)cc4)nc3C)o2)cc1: 103% (inactive)

# per-item lookup of growth; items listed below
1. C#C[C@]1(O)CC[C@H]2[C@@H]3CC=C4c5sc(N6CCN(C)CC6)nc5CC[C@]4(C)[C@H]3CC[C@@]21C
2. O=c1oc2ccc(-c3ccc(F)cc3F)cc2c(=O)n1-c1ccc(Br)cc1F
3. COc1cc(C(=O)c2cc(C(C)=O)c3ccc(C)cn23)cc(OC)c1OC
4. O=C(CSc1nc2ccccc2c(=O)n1-c1ccccc1)Nc1ccc(S(=O)(=O)Nc2nccs2)cc1
5. Cc1ccc(S(=O)(=O)NCCCNc2nc(Nc3ccc(N4CCN(C)CC4)cc3)nc3ccsc23)cc1

Result:
1. 19.6% (inactive)
2. 79.3% (inactive)
3. 32.4% (inactive)
4. 67.9% (inactive)
5. 20.5% (inactive)

Provide each entry's growth from the list below.
1. CC(C)[C@H]1c2[nH]c3ccccc3c2C[C@H]2C(=O)N(CCCCCCC(=O)NO)CC(=O)N12
2. COc1cc(C(C)=C(c2ccc(OCCN(C)C)cc2)c2ccc(OCCN(C)C)cc2)ccc1F
3. CN1CCN(c2ccc(C(=O)/C=C/c3cc(F)cc(C(F)(F)F)c3)cc2)CC1
4. CN1CCN(Cc2ccc(NC(=O)c3cncc(C#Cc4cnc5ccc(N)nn45)c3)cc2C(F)(F)F)CC1
5. COc1cc(-c2nc(-c3ccccc3)[nH]c2-c2ccnc(NCCCNS(=O)(=O)c3ccc(C)cc3)n2)ccc1F
6. C#CCOc1ccc(-c2csc(NC(=O)C=C)n2)cc1NS(=O)(=O)c1cccc2c(N(C)C)cccc12

Result:
1. 82.3% (inactive)
2. 104% (inactive)
3. 20% (inactive)
4. 0.667% (active)
5. 108% (inactive)
6. 10.3% (inactive)

List growth for every entry below, keeping the order given.
1. CCOC(=O)c1cccc(NC2=C(Cl)C(=O)C(C)=C(C)C2=O)c1
2. Cc1ccc(CSC2=C(Cl)CN(c3ccc(Cl)cc3)C2=O)cc1
3. NS(=O)(=O)c1ccc(CCn2c(-c3ccc(C(=O)O)cc3)nc(-c3ccccc3)c2-c2ccccc2)cc1
4. C/C(=N\NC(N)=S)c1nnn(-c2ccc([N+](=O)[O-])cc2)c1C
5. CC(Nc1c(C#N)cnc2ccc(-c3cncc(O)c3)cc12)c1ccccc1 (centres undefined)

Result:
["100% (inactive)", "108% (inactive)", "98.6% (inactive)", "94.9% (inactive)", "10.1% (inactive)"]

Okay, here is my list. What is growth for each of these?
1. Cn1c(SCC(=O)c2ccco2)nc2ccccc2c1=O
2. Cc1cc(=O)[nH]c(O)c1C#N
3. C#CCn1cc(/C=N/Nc2nc(-c3ccc(Br)cc3)cs2)c2ccccc21
4. Fc1cccc(Cl)c1/C=N/Nc1nc(N/N=C/c2c(F)cccc2Cl)nc(N2CCCCC2)n1
5. Clc1cccc(/C=N/Nc2nc(N/N=C/c3cccc(Cl)c3)nc(N3CCCCC3)n2)c1
6. O=C1[C@@H]2Cc3c([nH]c4ccccc34)[C@H](c3ccc(Br)cc3)N2C(=O)CN1C1CCN(Cc2c(Cl)cccc2Cl)CC1
7. CCN(CC)CCOc1ccc(C(=C(C)Cc2ccc(OC)cc2)c2ccc(OCCN(CC)CC)cc2)cc1
8. Cc1[nH]c(C(=O)Nc2ccc(C(=O)NCC3CCNCC3)cc2OC(C)C)c(Cl)c1Cl

Result:
1. 111% (inactive)
2. 96.6% (inactive)
3. 98.7% (inactive)
4. 17.2% (inactive)
5. 103% (inactive)
6. 92.7% (inactive)
7. -6.4% (active)
8. 33.6% (inactive)
